Just for reference, patent US12642270B2 is where these values come from.

Test name: Log P by HPLC on reversed phase columns (EEC directive 79/831 Annex V.A8)
Assay type: physicochemical
Condition set: method [a]
Measure name: LogP

Compound: CCOC(=O)CNC(=S)c1sc(C#N)c(Br)c1C
LogP: 3.30^[a]
//
Compound: COC(=O)[C@H](CC(N)=O)NC(=O)c1sc(Br)c(Br)c1F
LogP: 1.94^[a]

Query: LogP; subject: CCOC(=O)C(CO)NC(=O)c1sc(Cl)c(Cl)c1C#N (centres unmarked)
2.23^[a]

###

Test name: Log P by HPLC on reversed phase columns (EEC directive 79/831 Annex V.A8)
Format: physicochemical
Condition set: method [a]; compounds of formula (I), Table 1.1
Each entry below carries its reported LogP.

// solved cases for LogP follow
Compound: CCOC(=O)C(CO)NC(=O)c1sc(Cl)c(Br)c1C (racemic)
LogP: 2.54^[a]
//
Compound: COC(=O)C(Cc1c[nH]cn1)NC(=O)c1sc(Br)c(Cl)c1C (centres unmarked)
LogP: 1.47^[a]
//
Compound: CCOC(=O)C(Cc1ccccc1)NC(=O)c1sc(C#N)c(Br)c1C (racemic)
LogP: 3.74^[a]
//
Compound: CCOC(=O)C(CCSC)NC(=O)c1sc(Cl)c(Br)c1C (centres unmarked)
LogP: 3.99^[a]
//
Compound: COC(=O)[C@H](CCCNC(=N)N)NC(=O)c1sc(Br)c(Cl)c1C
LogP: 1.71^[a]

What LogP value was documented for this compound, CCOC(=O)C(C)NC(=O)c1sc(Cl)c(Br)c1C (centres unmarked) ?
3.37^[a]

Recorded LogP for COC(=O)C(CC(F)F)NC(=O)c1sc(I)c(Br)c1C (centres unmarked) , please?
3.33^[a]

Fill blank: measured LogP of the compound CCOC(=O)C(CCSC)NC(=O)c1sc(I)c(Br)c1C (centres unmarked) is ____.
3.96^[a]

Would you kindly share the measured LogP for C=CC1CC1(NC(=O)c1sc(Br)c(Br)c1F)C(=O)OC (mixture of isomers) ?
3.37^[a]

Sample COC(=O)C(CC(F)F)NC(=O)c1sc(Br)c(I)c1C (centres unmarked) — what was its LogP?
3.39^[a]

For the compound CCOC(=O)C(CC(N)=O)NC(=O)c1sc(Cl)c(Br)c1C (centres unmarked) , what LogP is on record?
2.25^[a]

Param item = CCOC(=O)C1(NC(=O)c2sc(C#N)c(Br)c2C)CC1 ; retrieve measured LogP.
2.58^[a]

Entry CCOC(=O)C(CC(F)(F)F)NC(=O)c1sc(Br)c(Cl)c1C (centres unmarked) has what LogP?
3.94^[a]

GET /values?readout=LogP&item= Cc1c(C(=O)NC2(C#N)CC2)sc(Br)c1Cl
2.75^[a]

Value lookup for LogP; key = CCOC(=O)CNC(=O)c1sc(C#N)c(Br)c1C
2.46^[a]

Consider the compound shown here: CCOC(=O)CCNC(=O)c1sc(Br)c(Br)c1I What is its recorded LogP?
3.48^[a]

I am curious: what LogP value has been reported for CCOC(=O)C(CC(F)(F)F)NC(=O)c1sc(Cl)c(Br)c1C (centres unmarked) ?
3.99^[a]

Looking for the measured LogP of Cc1c(C(=O)NC(C#N)C(C)C)sc(Cl)c1Br (centres unmarked) , can you help?
3.63^[a]
